# System name: EGFR wildtype (WT) (Homo sapiens)
# Sequence (P00533 25-1210): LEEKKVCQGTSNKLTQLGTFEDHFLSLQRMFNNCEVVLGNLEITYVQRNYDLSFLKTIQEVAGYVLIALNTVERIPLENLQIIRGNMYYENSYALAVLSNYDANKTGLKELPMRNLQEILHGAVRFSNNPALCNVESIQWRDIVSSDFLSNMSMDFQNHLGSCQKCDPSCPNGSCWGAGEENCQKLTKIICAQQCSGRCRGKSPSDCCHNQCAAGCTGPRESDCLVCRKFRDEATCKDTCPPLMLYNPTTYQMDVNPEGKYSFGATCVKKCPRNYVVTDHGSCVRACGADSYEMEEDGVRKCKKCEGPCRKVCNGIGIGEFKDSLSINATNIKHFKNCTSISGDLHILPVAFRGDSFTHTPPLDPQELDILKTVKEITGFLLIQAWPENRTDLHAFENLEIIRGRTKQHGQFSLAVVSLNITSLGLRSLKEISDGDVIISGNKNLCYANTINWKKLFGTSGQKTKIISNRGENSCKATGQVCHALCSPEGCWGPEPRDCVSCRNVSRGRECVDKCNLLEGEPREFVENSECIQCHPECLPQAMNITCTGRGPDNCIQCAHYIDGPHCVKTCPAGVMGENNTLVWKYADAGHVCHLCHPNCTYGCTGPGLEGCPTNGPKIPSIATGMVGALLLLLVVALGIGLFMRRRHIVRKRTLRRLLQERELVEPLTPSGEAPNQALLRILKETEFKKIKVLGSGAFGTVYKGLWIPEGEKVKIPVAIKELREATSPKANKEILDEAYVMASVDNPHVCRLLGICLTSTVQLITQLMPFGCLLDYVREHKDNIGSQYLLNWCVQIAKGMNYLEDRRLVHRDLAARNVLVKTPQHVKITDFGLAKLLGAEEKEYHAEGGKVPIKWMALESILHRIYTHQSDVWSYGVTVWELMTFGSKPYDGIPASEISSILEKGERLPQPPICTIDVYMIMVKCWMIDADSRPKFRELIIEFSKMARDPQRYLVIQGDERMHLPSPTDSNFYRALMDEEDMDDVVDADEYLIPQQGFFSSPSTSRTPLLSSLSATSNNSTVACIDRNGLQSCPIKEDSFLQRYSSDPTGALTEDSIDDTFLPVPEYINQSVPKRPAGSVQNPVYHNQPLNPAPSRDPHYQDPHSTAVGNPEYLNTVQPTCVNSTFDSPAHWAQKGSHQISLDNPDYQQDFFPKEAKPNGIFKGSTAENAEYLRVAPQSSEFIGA
# Protocol notes: Biochemical EGFR kinase assay (Lance Ultra TR-FRET), wildtype
# Cond: IC50 WT (nM) 100 μM ATP, 100 μM ATP

[
  {
    "Compound": "CC(C)(O)Cn1cc(-c2nccc(Nc3cc(N[C@H]4CC[C@@](C)(O)CC4)c(-c4ccn(C(F)F)n4)cn3)n2)cn1",
    "System name": "EGFR wildtype (WT) (Homo sapiens)",
    "IC50": "> 10000 nM"
  },
  {
    "Compound": "CC(O)C(C)(C)Nc1cc(Nc2ccnc(-c3cnn(S(=O)(=O)C4CC4)c3)n2)ncc1-c1ccn(C(F)F)n1 (centres unmarked)",
    "System name": "EGFR wildtype (WT) (Homo sapiens)",
    "IC50": "> 10000 nM"
  },
  {
    "Compound": "Cn1nc(-c2cnc(Nc3ccnc(-c4cnn(CC(F)(F)F)c4)n3)cc2N[C@H]2CC[C@@](C)(O)CC2)cc1C(F)(F)F",
    "System name": "EGFR wildtype (WT) (Homo sapiens)",
    "IC50": "> 10000 nM"
  },
  {
    "Compound": "CN(CC(F)F)C(=O)[C@H]1CC[C@@H](Nc2cc(Nc3ccnc(-c4cnn(S(=O)(=O)C5CC5)c4)n3)ncc2-c2ccn(C)n2)CC1",
    "System name": "EGFR wildtype (WT) (Homo sapiens)",
    "IC50": "616 nM"
  },
  {
    "Compound": "O=S(=O)(C1CC1)n1cc(-c2nccc(Nc3cc(N[C@H]4CC[C@@H](CCO)CC4)c(-c4ccn(CC(F)(F)F)n4)cn3)n2)cn1",
    "System name": "EGFR wildtype (WT) (Homo sapiens)",
    "IC50": "5750 nM"
  },
  {
    "Compound": "O=S(=O)(C1CC1)n1cc(-c2nccc(Nc3cc(NC4CCC(F)(CO)CC4)c(-c4cc5n(n4)CCCC5)cn3)n2)cn1 (centres unmarked)",
    "System name": "EGFR wildtype (WT) (Homo sapiens)",
    "IC50": "> 10000 nM"
  },
  {
    "Compound": "O=S(=O)(C1CC1)n1cc(-c2nccc(Nc3cc(N[C@H]4CC[C@@H](CO)CC4)c(-c4ccn(C(F)F)n4)cn3)n2)cn1",
    "System name": "EGFR wildtype (WT) (Homo sapiens)",
    "IC50": "> 10000 nM"
  },
  {
    "Compound": "O=S(=O)(C1CC1)n1cc(-c2nccc(Nc3cc(NC[C@H]4CC[C@@H](O)CC4)c(-c4ccn(C(F)F)n4)cn3)n2)cn1",
    "System name": "EGFR wildtype (WT) (Homo sapiens)",
    "IC50": "> 10000 nM"
  },
  {
    "Compound": "Cn1ccc(-c2cnc(Nc3ccnc(-c4cnn(S(=O)(=O)C5CC5)c4)n3)cc2NC[C@H]2CC[C@H](O)CC2)n1",
    "System name": "EGFR wildtype (WT) (Homo sapiens)",
    "IC50": "> 10000 nM"
  },
  {
    "Compound": "O=S(=O)(C1CC1)n1cc(-c2nccc(Nc3cc(NC[C@H]4C[C@H](CO)C4)c(-c4ccn(C(F)F)n4)cn3)n2)cn1",
    "System name": "EGFR wildtype (WT) (Homo sapiens)",
    "IC50": "> 10000 nM"
  },
  {
    "Compound": "C[C@]1(O)CC[C@@H](Nc2cc(Nc3ccnc(-c4cnn(S(=O)(=O)C5CC5)c4)n3)ncc2-c2ccn(CC(F)F)n2)CC1",
    "System name": "EGFR wildtype (WT) (Homo sapiens)",
    "IC50": "2980 nM"
  },
  {
    "Compound": "C[C@]1(O)CC[C@@H](Nc2cc(Nc3ccnc(-c4cnn(CC5CC5)c4)n3)ncc2-c2ccn(C(F)F)n2)CC1",
    "System name": "EGFR wildtype (WT) (Homo sapiens)",
    "IC50": "> 10000 nM"
  },
  {
    "Compound": "Cn1nc(-c2cnc(Nc3ccnc(-c4cnn(S(=O)(=O)C5CC5)c4)n3)cc2N[C@H]2CC[C@@H](C(C)(C)O)CC2)cc1C(F)(F)F",
    "System name": "EGFR wildtype (WT) (Homo sapiens)",
    "IC50": "> 10000 nM"
  },
  {
    "Compound": "Cn1ccc(-c2cnc(Nc3ccnc(-c4cnn(S(=O)(=O)C5CC5)c4)n3)cc2N[C@H]2CC[C@@H](C(C)(C)O)CC2)n1",
    "System name": "EGFR wildtype (WT) (Homo sapiens)",
    "IC50": "7830 nM"
  },
  {
    "Compound": "CC(C)n1ccc(-c2cnc(Nc3ccnc(-c4cnn(S(=O)(=O)C5CC5)c4)n3)cc2N[C@H]2CC[C@@](C)(O)CC2)n1",
    "System name": "EGFR wildtype (WT) (Homo sapiens)",
    "IC50": "> 10000 nM"
  },
  {
    "Compound": "O=S(=O)(C1CC1)n1cc(-c2nccc(Nc3cc(N[C@H]4CC[C@H](CO)OC4)c(-c4ccn(C(F)F)n4)cn3)n2)cn1",
    "System name": "EGFR wildtype (WT) (Homo sapiens)",
    "IC50": "> 10000 nM"
  },
  {
    "Compound": "Cn1ccc(-c2cnc(Nc3ccnc(-c4cnn(S(=O)(=O)C5CC5)c4)n3)cc2NCC2(C)CCC(O)CC2)n1 (centres unmarked)",
    "System name": "EGFR wildtype (WT) (Homo sapiens)",
    "IC50": "> 10000 nM"
  },
  {
    "Compound": "Cn1nc(-c2cnc(Nc3ccnc(-c4cnn(S(=O)(=O)C5CC5)c4)n3)cc2N[C@H]2CC[C@@H](CO)CC2)cc1C(F)(F)F",
    "System name": "EGFR wildtype (WT) (Homo sapiens)",
    "IC50": "618 nM"
  },
  {
    "Compound": "O=S(=O)(C1CC1)n1cc(-c2nccc(Nc3cc(NCCCn4ccnc4)c(-c4ccn(C(F)F)n4)cn3)n2)cn1",
    "System name": "EGFR wildtype (WT) (Homo sapiens)",
    "IC50": "> 10000 nM"
  },
  {
    "Compound": "Cc1ncc(-c2cnc(Nc3ccnc(-c4cnn(S(=O)(=O)C5CC5)c4)n3)cc2N2CCC(O)CC2)s1",
    "System name": "EGFR wildtype (WT) (Homo sapiens)",
    "IC50": "> 10000 nM"
  },
  {
    "Compound": "CN(C)C(=O)C[C@H]1CC[C@@H](Nc2cc(Nc3ccnc(-c4cnn(S(=O)(=O)C5CC5)c4)n3)ncc2-c2ccn(C)n2)CC1",
    "System name": "EGFR wildtype (WT) (Homo sapiens)",
    "IC50": "565 nM"
  },
  {
    "Compound": "COc1ncc(-c2nccc(Nc3cc(N[C@H]4CC[C@@](C)(O)CC4)c(-c4ccn(C(F)F)n4)cn3)n2)cn1",
    "System name": "EGFR wildtype (WT) (Homo sapiens)",
    "IC50": "> 10000 nM"
  },
  {
    "Compound": "C[C@]1(O)CC[C@H](CNc2cc(Nc3ccnc(-c4cnn(S(=O)(=O)C5CC5)c4)n3)ncc2-c2ccn(C(F)F)n2)CC1",
    "System name": "EGFR wildtype (WT) (Homo sapiens)",
    "IC50": "> 10000 nM"
  },
  {
    "Compound": "O=S(=O)(C1CC1)n1cc(-c2nccc(Nc3cc(N[C@H]4CC[C@H](O)C4)c(-c4ccn(C(F)F)n4)cn3)n2)cn1",
    "System name": "EGFR wildtype (WT) (Homo sapiens)",
    "IC50": "> 10000 nM"
  },
  {
    "Compound": "O=S(=O)(C1CC1)n1cc(-c2nccc(Nc3cc(NC[C@H]4C[C@@H](O)C4)c(-c4ccn(C(F)F)n4)cn3)n2)cn1",
    "System name": "EGFR wildtype (WT) (Homo sapiens)",
    "IC50": "> 10000 nM"
  },
  {
    "Compound": "Cn1cc(-c2nccc(Nc3cc(N[C@H]4CC[C@@](C)(O)CC4)c(-c4ccn(C(F)F)n4)cn3)n2)cn1",
    "System name": "EGFR wildtype (WT) (Homo sapiens)",
    "IC50": "> 10000 nM"
  }
]
